tested on: ACHN renal; experiment: NCI-60 one-dose screen, 48 h (100 = growth as untreated, 0 = no growth, -100 = all killed); settings: 10 µM
About 83,000 compounds went through this panel and 20% of them were active in at least one assay; those are over-represented in the sample as a whole.
Item-by-item account of growth
Lab book: enter the figure in %, no units written.

# annotated cases, reported growth shown
INSERT INTO assay_data (compound, observed_value) VALUES
  ('CC1(C)CC[C@]2(C(=O)NCCCNCCCCNCCCN)CC[C@]3(C)C(=CC[C@@H]4[C@@]5(C)Cc6c([nH]c7ccccc67)C(C)(C)[C@@H]5CC[C@]43C)[C@H]2C1', 93.9),
  ('Nc1n[nH]c2cccc(C#Cc3cccc(NC(=O)Nc4cc(C(F)(F)F)cc(C(F)(F)F)c4)c3)c12', -25.4),
  ('N#Cc1c(NC(=O)c2cccc(C(F)(F)F)c2)sc2c1CCC(O)=C2', 31.4),
  ('C=C1CCC2C3(C)COC(c4c(F)cccc4F)OC3CCC2(C)C1C/C=C1/C(=O)OCC1O (stereo unspecified)', -97.8),
  ('Cc1cc(C)cc(Oc2cccc(-c3c(C)nnn3C3CCN(CCN(C)C)CC3)n2)c1', 26.2),
  ('CN(C)c1cccc2c(S(=O)(=O)Nc3cccc(-c4csc(NC(=O)CCCCCN5CCN(c6cc7c(cc6F)C(=O)N(C6CCC(=O)NC6=O)C7=O)CC5)n4)c3)cccc12 (stereo unspecified)', 97.8),
  ('CC[C@]12C=CCN3CC[C@@]4(c5cc(C#CCNc6ccc(C)c(Nc7nccc(-c8cccnc8)n7)c6)c(OC)cc5N(C)[C@H]4[C@@](O)(C(=O)OC)[C@@H]1OC(C)=O)C32 (stereo partly specified)', 51.4),
  ('O=C1Nc2ccc(Cl)cc2/C1=C/c1cccc(OCc2ccccn2)c1', -40.3);

Input COc1ccc(/C=C/C(=O)c2ccc(NC(=O)CN3C(=O)NC(C)(c4ccccc4)C3=O)cc2)cc1 (stereo unspecified) . Output growth: 84.5

Lab book: growth of `CN1CCc2c(sc3ncnc(N/N=C/c4ccc5ccccc5c4)c23)C1` noted as 67.2

// growth value for `COc1ccc(-c2nc(-c3ccccc3)c(-c3ccccc3)n2-c2ccc(S(=O)(=O)Nc3ncccn3)cc2)cc1OC` : 82.6

Looking up `COc1ccc(/C(C)=N/N=C2C(=O)N(C)c3ccc(Br)cc32)cc1S(N)(=O)=O` , I found its growth recorded as 69.3

The compound listed as CC1(c2ccccc2)NC(=O)N(CC(=O)Nc2ccc(C(=O)/C=C/C=C/c3ccccc3)cc2)C1=O (stereo unspecified) has a reported growth of 48.4

Briefly, growth measured for `Cc1ccc([N+](=O)[O-])c(C(=O)Nc2ccc(-c3ccc4c(c3)NC(=O)/C4=C\c3ccc[nH]3)cc2)c1` : 66.4

What the record says about `CCCn1c(=O)c2[nH]c(-c3ccc(OCc4nc5ccc(C)cc5[nH]4)cc3)nc2n(CCC)c1=O` : growth is -88.2

Value of growth reported for the compound `COc1ccc(CCN2C(=O)/C(=C/c3csc(C#N)n3)SC2=S)cc1` is 4.4

###

test system: SF-539 CNS; test: NCI-60 one-dose screen, 48 h (100 = growth as untreated, 0 = no growth, -100 = all killed); details: 10 µM
Compounds without any hit were thinned out: in the full panel of roughly 83,000, 20% have a hit.
Form field: growth (one value per entry).
Report the value in % with no unit label.

Reported growth for `O=C(CSc1ccc(-c2ccc(Cl)cc2)nn1)Nc1ccc(Cl)c(C(F)(F)F)c1` was 60.7

For record `CN1CCN(c2ccc(Nc3nc(NCCCNC(=O)c4ccc(F)cc4)c4sccc4n3)cc2)CC1` the listed growth is -90

Form: molecule = `N#Cc1ccc(-c2nn(-c3ccc(C(=O)O)cc3)cc2CNc2cc(Cl)cc(Cl)c2)cc1` ; growth = 30.6

growth for `O=C(Nc1ccc(OCC(=O)c2ccccc2)cc1)Nc1ccc(Cl)c(C(F)(F)F)c1` is 12.1

Summary for this molecule, `C=CC(=O)Nc1ccc(C(=O)/C=C/c2ccc(N(C)CCF)cc2)c(O)c1` : growth is -81.5

// sample `COc1ccc(C(=O)Nc2sc3c(c2C#N)CCC(=O)C3)cc1C(F)(F)F` , its growth was -82.7

growth reading for CN1C(=O)N(C)C2SC(N/N=C/c3ccccc3F)=NC21 (stereo not given) : 54.3

growth reported for this molecule `COc1cnc2c(c1)C(=O)c1c-2n(CCCNC(C)C)c(=O)c2cc(OC)c(OC)cc12` : -63

Lab note: measured growth of `O=C(Nc1ccc(I)cc1)Nc1nc2ccc([N+](=O)[O-])cc2s1` was -99.7

growth recorded for this molecule, `Cc1ccc(-c2ccc(SCC(=O)Nc3ccc(S(N)(=O)=O)cc3Br)nn2)cc1` , is 13.3
